binders and their reported Mean % WT Binding
- ASSAYED_SYSTEM: human CD33 G241A (human, UniProt P20138 18-364)
- Sequence (P20138 18-364 G241A limits assumed): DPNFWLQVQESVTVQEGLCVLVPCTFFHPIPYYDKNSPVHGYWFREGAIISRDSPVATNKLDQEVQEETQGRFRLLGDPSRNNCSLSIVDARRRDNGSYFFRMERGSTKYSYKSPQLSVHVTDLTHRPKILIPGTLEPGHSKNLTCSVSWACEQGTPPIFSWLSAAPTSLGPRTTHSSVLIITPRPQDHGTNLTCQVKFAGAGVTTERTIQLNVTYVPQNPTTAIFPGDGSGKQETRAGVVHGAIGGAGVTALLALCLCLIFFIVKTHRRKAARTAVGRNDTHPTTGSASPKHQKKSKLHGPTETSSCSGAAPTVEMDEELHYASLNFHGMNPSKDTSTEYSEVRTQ
- RUN_DESCRIPTION: alanine scan, flow cytometry, HEK293-T;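 also: antibody binding to each alanine-substituted CD33 mutant expressed transiently in HEK293-T, read as fluorescence minus background, mean of duplicates, relative to wild-type CD33 set as 100%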
Provide only the numeric value, understood in %.

Worked cases, answers included:
{"columns": ["BINDER", "Mean % WT Binding, %"],
 "data": [
  ["Refmab #2 (antibody, V domains shown, In the alanine scan antibodies were used as IgG or Fab) VH: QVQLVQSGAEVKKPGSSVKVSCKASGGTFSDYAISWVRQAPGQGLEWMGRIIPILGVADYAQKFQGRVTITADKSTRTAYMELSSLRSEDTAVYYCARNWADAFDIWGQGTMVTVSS VL: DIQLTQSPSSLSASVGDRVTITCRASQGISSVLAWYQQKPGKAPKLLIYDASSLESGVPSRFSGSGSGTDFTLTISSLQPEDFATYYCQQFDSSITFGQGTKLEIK", 111],
  ["Refmab #3 (antibody, V domains shown, In the alanine scan antibodies were used as IgG or Fab) VH: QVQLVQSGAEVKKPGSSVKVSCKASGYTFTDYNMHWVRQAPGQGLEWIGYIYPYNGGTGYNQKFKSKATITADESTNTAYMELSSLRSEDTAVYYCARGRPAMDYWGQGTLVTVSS VL: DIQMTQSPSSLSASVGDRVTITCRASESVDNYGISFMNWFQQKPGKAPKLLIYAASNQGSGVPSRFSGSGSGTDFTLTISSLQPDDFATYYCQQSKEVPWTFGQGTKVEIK", 128]
]}

Now turn to the next binder.
For this binder ( Refmab #4 (antibody, V domains shown, In the alanine scan antibodies were used as IgG or Fab) VH: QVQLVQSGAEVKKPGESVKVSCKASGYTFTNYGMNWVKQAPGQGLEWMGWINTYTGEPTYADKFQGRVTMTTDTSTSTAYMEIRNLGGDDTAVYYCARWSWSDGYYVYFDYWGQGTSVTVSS VL: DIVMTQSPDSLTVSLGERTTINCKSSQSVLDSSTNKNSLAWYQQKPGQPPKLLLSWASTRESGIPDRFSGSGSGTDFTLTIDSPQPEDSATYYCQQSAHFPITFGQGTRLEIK ), measured Mean % WT Binding is 109

Data origin: patent US20260242735A1
